System: Amyloid-beta precursor protein (Homo sapiens, UniProt P05067) | Read-out: IC50 | Origin: multiple publications
Mark true (1) only when IC50 stays strictly below 40 nM. Values equal to the cut-off are false (0).

• CN(C)c1ccc(-c2nc3ccc(F)nc3o2)cc1 = true (1)
• CNc1ncc(-c2cc3cc(O)ccc3o2)cc1F = true (1)
• COc1ccc2cc(-c3ccc(C(N)=O)cn3)oc2c1 = true (1)
• O=C(/C(=C/C=C/c1ccccc1)c1cccc(C(F)(F)F)c1)N1CCN(c2ncccn2)CC1 = false (0)
• CNc1ccc(-c2nc3ccc(O)cc3s2)nc1F = false (0)
• CC1=C(/C=C/C(C)=C/C=C/C(C)=C/C=O)C(C)(C)CCC1 = false (0)

---

System: Amyloid-beta precursor protein (Homo sapiens, UniProt P05067) | Read-out: IC50 | Origin: multiple publications
READOUT_KIND: IC50

- Oc1ccc2nc(-c3ccc(NCCF)nc3)sc2c1: 33 nM
- [3H]C([3H])([3H])N(c1ncc(-c2nc3ccc(O)cc3o2)cn1)C([3H])([3H])[3H]: 75 nM
- COc1ccc(-c2nc3ccc(F)nc3o2)cc1: 32.5 nM
- Oc1cc(O)cc(/C=C/c2ccc(NCc3ccccc3O)cc2)c1: 10200 nM
- Fc1ccc2nc(-c3ccc4cc[nH]c4c3)oc2n1: 45.3 nM
- Cn1ccc2cc(-c3nc4ccc(F)nc4o3)ccc21: 8 nM
- CNc1ncc(-c2nc3ccc(O)cc3s2)cc1F: 98 nM
- CNc1ccc(-c2nc3ccc(C(N)=O)cc3s2)cn1: 85 nM
- COc1cc(/C=C/c2ccc(NCc3cc(NC(C)C)ccc3O)cc2)cc(OC)c1: 18400 nM
- COc1ccc2oc(-c3ccc(C(N)=O)nc3F)cc2c1: 32 nM
- CC1=C(/C=C/C(C)=C/C=C/C(C)=C/C(=O)O)C(C)(C)CCC1: 180 nM

---

System: Amyloid-beta precursor protein (Homo sapiens, UniProt P05067) | Read-out: pIC50 | Origin: multiple publications
pIC50: −log10 of the molar value.
READOUT_KIND: pIC50

• CNc1ccc(-c2nc3ccc(F)nc3o2)cc1 = 7.64
• CNc1ccc(-c2cc3cc(O)ccc3o2)nc1F = 7.46
• CN(C)c1ccccc1CNc1ccc(/C=C/c2cc(O)cc(O)c2)cc1 = 4.85
• CCN(CC)CCCOc1ccc(-c2oc3ccccc3c2C(=O)c2ccc(C)cc2)cc1 = 4.25
• Oc1ccc2nc(-c3ccc(NCCF)nc3)oc2c1 = 6.80
• Fc1ccc2nc(-c3ccc4[nH]ccc4c3)oc2n1 = 7.86
• [3H]N(c1ccc(-c2nc3ccc(O)cc3s2)cn1)C([3H])([3H])[3H] = 7.24
• CC1=C(/C=C/C(C)=C/C=C/C(C)=C/CO)C(C)(C)CCC1 = 6.74
• Oc1ccc2nc(-c3ccc(NCCCF)nc3)sc2c1 = 7.18
• Fc1ccc2nc(-c3ccc4ncsc4c3)oc2n1 = 7.45
• Cn1ccc2cc(-c3nc4ccc(F)nc4o3)cnc21 = 7.98
• CCC(=O)O[C@@H]([C@H]1C[C@@H](C)[C@H]2[C@H](O1)[C@H](O)[C@@]1(C)[C@@H]3CC[C@H]4C(C)(C)[C@@H](O[C@H]5CN(C6CN(C)C6)CCO5)CC[C@@]45C[C@@]35CC[C@]21C)C(C)(C)O = 7.00
• [3H]C([3H])([3H])N(c1ccc(-c2nc3ccc(OC)cc3o2)cn1)C([3H])([3H])[3H] = 6.69
• CNc1ncc(-c2nc3ccc(O)cc3s2)cn1 = 6.57
• CNc1ccc(-c2cc3cc(O)ccc3o2)c(F)n1 = 7.62
• [3H]N(c1ccc(-c2nc3ccc(OC)cc3s2)cn1)C([3H])([3H])[3H] = 7.24
• Clc1ccc(/C=N/c2ccc3cn[nH]c3c2)cc1Cl = 4.71
• O=[N+]([O-])c1ccc(O)c(CNc2ccc(/C=C/c3cc(O)cc(O)c3)cc2)c1 = 5.15
• CNc1ccc(-c2cc3cc(C(N)=O)ccc3o2)nc1F = 7.49
